Test system: 5-HT2A
Experiment Summary: Ca2+ flux assay, 5-HT2A
Type: cell-based, human
Condition Summary: Gq/11 Ca2+ mobilization; higher number = skewed towards 5-HT2A
Mark label 0 for 5-HT2A/5-HT2c Selectivity Factor ΔLog(Emax/EC50) values under 40, and label 1 for everything at or above.

Solved entries (count: 2):
Compound	Class Name
COc1cc([N+](=O)[O-])c(OC)cc1CCNCc1ccccc1O [25N-NBOH (3)]	label 0
COc1cc([N+](=O)[O-])c(OC)cc1CCNCc1ccccc1 [25N-NB (2)]	label 0

Task: Could you verify whether the entry COc1cc([N+](=O)[O-])c(OC)cc1CCNCc1cccc2c1OC(F)(F)O2 [25N-NBMDF2 (13)] shows 5-HT2A/5-HT2c Selectivity Factor ΔLog(Emax/EC50) of no less than 40?
Result: label 1

Task: Could you verify whether the entry COc1cc([N+](=O)[O-])c(OC)cc1CCNCc1ccc(F)cc1 [25N-NB-4-F (25)] shows 5-HT2A/5-HT2c Selectivity Factor ΔLog(Emax/EC50) of no less than 40?
Result: label 1

Task: Could you verify whether the entry COc1cc([N+](=O)[O-])c(OC)cc1CCNCc1cccc(O)c1 [25N-NB-3-OH (21)] shows 5-HT2A/5-HT2c Selectivity Factor ΔLog(Emax/EC50) of no less than 40?
Result: label 1

Sourced from patent US20240254087A1
